# Test system: Staphylococcus aureus
# Experiment description: Antibacterial activity against methicillin-resistant Staphylococcus aureus clinical isolate 325/09 after 18 hrs by twofold serial agar dilution technique
# Type: functional
# Condition set: clinical isolate 325/09, 18 h
Quantity measured: MIC (mg/L)
The reply should contain only the number, in mg/L.

Known results for compounds:
chem_smiles=S=C(Nc1ccc(Cl)cc1)Nc1nc[nH]n1 subject_of_test="Staphylococcus aureus" quantity_measured=MIC unit_label=mg/L observed_value=25
chem_smiles=S=C(Nc1ccc(Br)cc1)Nc1nc[nH]n1 subject_of_test="Staphylococcus aureus" quantity_measured=MIC unit_label=mg/L observed_value=50
chem_smiles=S=C(Nc1ccc(I)cc1)Nc1nc[nH]n1 subject_of_test="Staphylococcus aureus" quantity_measured=MIC unit_label=mg/L observed_value=25
chem_smiles=S=C(Nc1nc[nH]n1)Nc1ccccc1Br subject_of_test="Staphylococcus aureus" quantity_measured=MIC unit_label=mg/L observed_value=50
chem_smiles=S=C(Nc1ccccc1)Nc1nc[nH]n1 subject_of_test="Staphylococcus aureus" quantity_measured=MIC unit_label=mg/L observed_value=50

For Staphylococcus aureus, provide MIC of `Fc1cccc(NC(=S)Nc2nc[nH]n2)c1` please.
12.5

Same question, `Fc1ccc(NC(=S)Nc2nc[nH]n2)cc1` this time
50

---

# Experiment description: Cytotoxicity against human MT4 cells after 96 hrs by MTT assay
# Type: cell-based
The molecules listed here are annotated with their CC50 at 96 h.

chem_smiles=Nc1ncnn1/C(S)=N/C1CCCCC1 observed_value="> 100 µM"

Suppose we examine the molecule `S=C(Nc1nc[nH]n1)Nc1ccccc1Br` ; what CC50 at 96 h value has been reported?
> 100 µM

Same question, `COc1ccc(NC(=S)Nc2nc[nH]n2)cc1` this time
> 100 µM

---

# Experiment description: Cytotoxicity against human MT4 cells after 96 hrs by MTT assay
# Type: cell-based
Quantity measured: CC50 at 96 h (µM)
The reply should contain only the number, in µM.

molecule=Nc1ncnn1/C(S)=N/Cc1ccccc1 quantity_measured="CC50 at 96 h" observed_value=7.4
molecule=S=C(Nc1cccc(Br)c1)Nc1nc[nH]n1 quantity_measured="CC50 at 96 h" observed_value=50
molecule="O=C1Nc2ccc(Cl)cc2[C@@](C#CC2CC2)(C(F)(F)F)O1 [EFAVIRENZ]" quantity_measured="CC50 at 96 h" observed_value=37
molecule="CC[C@@]1(O)C(=O)OCc2c1cc1n(c2=O)Cc2cc3ccccc3nc2-1 [CAMPTOTHECIN]" quantity_measured="CC50 at 96 h" observed_value=0.004
molecule=Cc1ccc(NC(=S)Nc2nc[nH]n2)cc1 quantity_measured="CC50 at 96 h" observed_value=59
molecule=S=C(Nc1ccc(Cl)c(Cl)c1)Nc1nc[nH]n1 quantity_measured="CC50 at 96 h" observed_value=47
molecule=S=C(Nc1ccc(I)cc1)Nc1nc[nH]n1 quantity_measured="CC50 at 96 h" observed_value=46

Please examine the following record next.
Suppose we examine the molecule `S=C(Nc1ccc(Cl)cc1)Nc1nc[nH]n1` ; what CC50 at 96 h value has been reported?
47

---

# Test system: Staphylococcus aureus
# Experiment description: Antibacterial activity against methicillin-resistant Staphylococcus aureus clinical isolate 357/09 after 18 hrs by twofold serial agar dilution technique
# Format: functional
# Condition set: clinical isolate 357/09, 18 h
The compounds listed here are annotated with their MIC.

Known results for compounds:
chem_smiles=Fc1ccccc1NC(=S)Nc1nc[nH]n1 observed_value="> 400 µg/mL"
chem_smiles=S=C(Nc1ccccc1)Nc1nc[nH]n1 observed_value="50 µg/mL"
chem_smiles=S=C(Nc1ccc(Br)cc1)Nc1nc[nH]n1 observed_value="50 µg/mL"
chem_smiles=S=C(Nc1ccc(Cl)cc1)Nc1nc[nH]n1 observed_value="50 µg/mL"
chem_smiles=Fc1ccc(NC(=S)Nc2nc[nH]n2)cc1 observed_value="50 µg/mL"
chem_smiles=Fc1cccc(NC(=S)Nc2nc[nH]n2)c1 observed_value="25 µg/mL"
chem_smiles=S=C(Nc1ccc(I)cc1)Nc1nc[nH]n1 observed_value="50 µg/mL"

For Staphylococcus aureus, provide MIC of `S=C(Nc1nc[nH]n1)Nc1ccccc1Br` please.
50 µg/mL
